From: a melting point compilation (Tetko et al.; mined from patent text by program, amines drawn as free bases though some values may be those of a salt)

The following compounds are shown together with reported melting point values.
Reported Endpoint: melting point

- O=C(NNC(=O)c1occ(-c2ccccc2)c1-c1ccccc1)c1ccc(O)c(I)c1: 171 to 174 °C
- COc1cc2c(cc1OC)CN(CCc1ccc(NC(=O)c3cccc4c(=O)cc(-c5ccccc5)oc34)cc1)CC2: 135 to 140 °C
- O=C1c2ccccc2C(Cc2ccncc2)(Cc2ccncc2)C(=O)N1c1ccccc1: > 270 °C
- CC(C)n1nc(-c2c(OCCN)nc(N)nc2-c2ccccc2)ccc1=O: 213 to 216 °C
- CCn1c(CO)nc(C(C)C)c1Sc1cc(C#N)cc(C#N)c1: 167 to 169 °C

* * *

The following compounds are shown together with reported melting point values.
Reported Endpoint: melting point (°C)

• CC(C)(C)OC(=O)Nc1nc2cc(N)ccc2[nH]1 = 168
• CC(=O)n1cc(Cl)c(-c2cccc(Cl)c2Cl)c1 = 97
• O=[N+]([O-])c1ccccc1NCc1ccco1 = 85.6

* * *

The following compounds are shown together with reported melting point values.
Reported Endpoint: melting point

- CCCCc1c(-c2cc3ccccc3o2)nc(N)nc1-c1cc2ccccc2o1: 142 to 144 °C
- O=C(O)c1ccc(-c2ccncc2)cc1[N+](=O)[O-]: 314 to 316 °C
- CN(CCO)Cc1cc(C(=O)c2ccccc2F)cc(C(C)(C)C)c1O: 87 to 89 °C
- COc1c(NC(=O)c2cc3cccc(NC(=O)c4ccc(N)nc4)c3s2)cc(C(C)(C)C)cc1NS(C)(=O)=O: 234 to 235 °C
- O=C1Cc2cc3ccccc3cc2C(c2ccccc2Cl)N1 (centres undefined): 234 to 237 °C
- O=C(OCc1ccccc1)c1n[nH]c2c(=O)[nH]c3cc(Cl)ccc3c(=O)c12: 254 °C
- C[C@@H]1S[C@@H](C(=O)Nc2ccc(CC3SC(=O)NC3=O)cc2)Cc2cc3c(cc2C1=O)OCO3 (some centres undefined): 139 to 144 °C
- O=c1[nH]c(=S)c2[nH]cnc2n1Cc1ccc(Cl)cc1: 274 to 278 °C
- Cc1csc(N2CCN(Cc3ccc(C(=O)NCc4ccccc4)cc3)C2=O)n1: 185 to 186 °C
- COc1ccc(N2CCN(Cc3n[nH]c4c(F)c(F)ccc34)CC2)cc1: 195 to 197 °C
- CC(C)C1=NC(c2ccccc2)=NC(c2ccc(F)cc2)C1=CO (centres undefined): 183 to 184 °C
- CS(=O)(=O)c1ccc(-c2cnn(-c3csc4ccccc34)c(=O)c2-c2ccc(F)cc2)cc1: 265 to 267 °C
- CN(C)C(=O)c1cc(C#N)cnc1Cl: 148 to 153 °C
- Cc1cc(Br)cnc1CCCCNc1ncc(Cc2ccc(O)cc2)c(=O)[nH]1: 232 to 234 °C
- Cc1sc(N2CCCCC2)nc1C=Cc1cn(-c2ccccc2)nc1O: 224 to 226 °C
- COc1ccc(-c2cc3ccccc3[nH]2)cc1O: 217 °C
- Nc1cccc(-c2ccc(OCCN3CC4C(N)C4C3)c3ccccc23)n1 (centres undefined): 140 to 155 °C
- CCOC(=O)c1cc(I)c(F)c(F)c1F: 33 to 34 °C
- CC1Cc2c(c3ccccc3n2C(=O)c2ccccc2)C(C)C1C(=O)O (centres undefined): 142 to 145 °C
- CCCCOc1cccc2oc(-c3ccccc3)cc(=O)c12: 96 to 97 °C
- COc1ccc(-c2ccc3c(F)c(OC)ccc3c2)cc1: 150 to 155 °C
- CC(=O)Oc1ccc(C(=O)NCCO[N+](=O)[O-])cc1: 95 to 97 °C
- CC(=O)Oc1cc(C)cc(C2(CC#N)N=NC=C2c2cc(NCC(C)OC(C)=O)nc(-c3cccnc3)n2)c1 (centres undefined): 230 °C
- Nc1ncnc2sc(CCO)c(-c3ccc(NC(=O)Nc4cccc(C(F)(F)F)c4)cc3)c12: 155 to 158 °C
- CC1(C)CCC(C)(C)c2cc(-c3cc(-c4ccc(C(=O)O)cc4)ccc3OCCN3CCOCC3)ccc21: 270 to 272 °C
- CC(C)(C)OC(=O)N1CCC(c2nc3ccc(-c4ccc(S(C)(=O)=O)cc4F)cc3o2)CC1: 174 to 178 °C
- CCCc1ccc(S(=O)(=O)n2c(CCC(=O)O)cc3cc(Cl)ccc32)cc1: 144 to 148 °C
- COc1ccc2nc(SC(C#N)c3ncc(C)c(OC)c3C)[nH]c2c1 (centres undefined): 193 to 197 °C
- N#Cc1ccc(-c2ccc(NCCCC3CCCCO3)cc2)cc1 (centres undefined): 111 to 113 °C
- CCCCCC(=O)Nc1ccc2ccn(CCCO)c2c1: 87 to 88 °C
- CCc1nc(N)nc(N)c1-c1ccc(NCc2ccc(Cl)c(Cl)c2)c([N+](=O)[O-])c1: 244 to 246 °C
- CCc1ccc(NC(=O)N[C@H]2C[C@H](C(=O)O)Nc3cc(Cl)cc(Cl)c32)cc1 (relative stereo): 195 to 197 °C
- COc1cccc(OCC(=O)c2cc(OCc3ccccc3)ccc2OC)c1: 76 to 77 °C
- CCOC(=O)C(C)(C)Oc1ccc(C(=O)c2cccs2)cc1: 45 °C
- CCCCCCCCCCCC[C@]1(C)OO[C@@H]2C[C@H]1CC(=O)[C@@H]2C: 35 °C
- OCc1ccc(OCc2ccc3ccccc3n2)cc1: 131 to 135 °C
- CC(=O)Nc1cccc2cccc(N=[N+]=[N-])c12: 148 to 149 °C
- CC(C)(C)OC(=O)C1CCC2(CCn3c(cc4ccccc43)C2)C1=O (centres undefined): 129 to 131 °C
- Nc1nc(N)c(CCNc2ccc(C(=O)N[C@@H](CCC(=O)O)C(=O)O)cc2)c(=O)[nH]1: 180 to 185 °C
